- System: Arabidopsis thaliana seedlings
- method_summary: Test of the herbicidal activity on Arabidopsis thaliana seedlings grown hydroponically at the cotyledon stage
- Assay type: in vivo
- Set-up: key: A for Active in the case where the plant is killed, that is to say when the two cotyledons have lost all of their green coloration; “N” for Not active, in the case where no biological activity is observed
- measurement_conditions: 50 μg/mL in nutrient medium, 96 h after application
- Procedure: The compounds were tested on Arabidopsis thaliana seedlings grown hydroponically at the cotyledon stage. Sterile seeds are germinated in the light in a culture plate, in the presence of 200 μL of nutrient medium. After five days of culture (time 0 of the trial), the nutrient medium is replaced with an equivalent volume (200 μL) of this same medium containing the compound to be tested at different concentrations. […]
outcome_measure: Activity after 96 h

>>> result("CC1=CCc2c(O)cc(CCc3ccccc3)cc2OC1")
"A"
>>> result("CC1=CCOc2cc(CCc3ccccc3)c(C(=O)O)c(O)c2C1")
"A"
>>> result("Oc1cccc2c1CC=CCO2 [Compound E, reference compound]")
"N"
>>> result("CC1=CCc2c(cc(CCc3ccccc3)c(C(=O)O)c2O)OC1")
"A"
>>> result("COC(=O)c1c(CCc2ccccc2)cc2c(c1O)CC=C(C)CO2")
"A"

* * *

- System: Arabidopsis thaliana seedlings
- method_summary: Test of the herbicidal activity on Arabidopsis thaliana seedlings grown hydroponically at the cotyledon stage
- Format: in vivo
- Design: key: A for Active in the case where the plant is killed, that is to say when the two cotyledons have lost all of their green coloration; “N” for Not active, in the case where no biological activity is observed
- measurement_conditions: 100 μg/mL in nutrient medium, 24 h after application
outcome_measure: Activity after 24 h

>>> result("COC(=O)c1c(CCc2ccccc2)cc2c(c1O)CC=C(C)CO2 [Compound D]")
"N"
>>> result("CC1=CCc2c(O)cc(CCc3ccccc3)cc2OC1 [Compound A]")
"A"
>>> result("Oc1cccc2c1CC=CCO2 [Compound E, reference compound]")
"N"
>>> result("CC1=CCc2c(cc(CCc3ccccc3)c(C(=O)O)c2O)OC1 [Compound H]")
"A"
>>> result("CC1=CCOc2cc(CCc3ccccc3)c(C(=O)O)c(O)c2C1 [Compound C]")
"A"
